Where these numbers come from: patent US11026937B2

studySystem: hPAD4 enzyme (Homo sapiens (Human), UniProt Q9UM07)
Sequence (Q9UM07 whole entry): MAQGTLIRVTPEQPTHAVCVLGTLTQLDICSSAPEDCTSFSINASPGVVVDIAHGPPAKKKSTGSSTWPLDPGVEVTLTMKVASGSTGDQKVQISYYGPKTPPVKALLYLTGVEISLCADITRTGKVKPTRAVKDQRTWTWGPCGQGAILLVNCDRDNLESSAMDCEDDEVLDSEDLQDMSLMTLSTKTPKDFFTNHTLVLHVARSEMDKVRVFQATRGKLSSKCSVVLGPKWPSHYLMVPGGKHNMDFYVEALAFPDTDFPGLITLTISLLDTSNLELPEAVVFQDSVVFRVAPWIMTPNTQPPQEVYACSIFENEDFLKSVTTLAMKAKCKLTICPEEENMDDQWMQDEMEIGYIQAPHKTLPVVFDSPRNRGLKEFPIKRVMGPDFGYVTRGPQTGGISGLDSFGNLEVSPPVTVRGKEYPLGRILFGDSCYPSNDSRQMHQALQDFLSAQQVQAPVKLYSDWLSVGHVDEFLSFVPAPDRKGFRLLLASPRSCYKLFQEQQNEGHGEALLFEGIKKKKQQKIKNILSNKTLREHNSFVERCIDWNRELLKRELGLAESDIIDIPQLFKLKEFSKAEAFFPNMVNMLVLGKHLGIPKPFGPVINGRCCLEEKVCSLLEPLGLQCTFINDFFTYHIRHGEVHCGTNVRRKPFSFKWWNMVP
experimentSummary: PAD4 assay (hPAD4-RFMS, RapidFire mass spectrometry)
Type: biochemical
setupConditions: 100 nM hPAD4, 50 μM substrate peptide, 1 mM CaCl2, 65 mins at 37° C.; read-out: hPAD4-RFMS: IC50 (μM) (Average)
quantityName: IC50

Solved entries (count: 6):
[
  {
    "recordSmiles": "COc1ccc(/C=C/C(=O)c2c(-c3ccccc3)c3ccccc3[nH]c2=O)cc1",
    "readoutValue": "3 to 20 µM"
  },
  {
    "recordSmiles": "O=C(/C=C/c1cccnc1)c1c(-c2ccccn2)c2ccccc2[nH]c1=O",
    "readoutValue": "> 100 µM"
  },
  {
    "recordSmiles": "O=C(/C=C/c1cncnc1)c1c(-c2cccnc2)c2ccccc2[nH]c1=O",
    "readoutValue": "> 100 µM"
  },
  {
    "recordSmiles": "Cn1c(/C=C/C(=O)c2c(-c3ccccc3)c3ccccc3n(C)c2=O)nc2ccccc21",
    "readoutValue": "> 100 µM"
  },
  {
    "recordSmiles": "O=C(/C=C/c1nc2ccccc2[nH]1)c1c(-c2ccccc2)c2ccccc2[nH]c1=O",
    "readoutValue": "20 to 100 µM"
  },
  {
    "recordSmiles": "O=C(/C=C/c1ccccn1)c1c(-c2ccc(F)cc2)c2ccccc2[nH]c1=O",
    "readoutValue": "> 100 µM"
  }
]

Item "O=C(/C=C/c1cncnc1)c1c(-c2ccccc2)c2cnccc2[nH]c1=O" was tested on hPAD4 enzyme (Homo sapiens (Human), UniProt Q9UM07); the reported IC50 is > 100 µM

Item "C#CCOCCOCCOc1ccc(/C=C/C(=O)c2c(-c3ccccc3)c3ccccc3[nH]c2=O)cc1" was tested on hPAD4 enzyme (Homo sapiens (Human), UniProt Q9UM07); the reported IC50 is > 100 µM

Item "COc1ccc(/C=C/C(=O)c2ccc[nH]c2=O)cc1" was tested on hPAD4 enzyme (Homo sapiens (Human), UniProt Q9UM07); the reported IC50 is > 100 µM
